Target: T1, mouse PAI-1 (mouse, UniProt P22777 24-401)
T1 sequence: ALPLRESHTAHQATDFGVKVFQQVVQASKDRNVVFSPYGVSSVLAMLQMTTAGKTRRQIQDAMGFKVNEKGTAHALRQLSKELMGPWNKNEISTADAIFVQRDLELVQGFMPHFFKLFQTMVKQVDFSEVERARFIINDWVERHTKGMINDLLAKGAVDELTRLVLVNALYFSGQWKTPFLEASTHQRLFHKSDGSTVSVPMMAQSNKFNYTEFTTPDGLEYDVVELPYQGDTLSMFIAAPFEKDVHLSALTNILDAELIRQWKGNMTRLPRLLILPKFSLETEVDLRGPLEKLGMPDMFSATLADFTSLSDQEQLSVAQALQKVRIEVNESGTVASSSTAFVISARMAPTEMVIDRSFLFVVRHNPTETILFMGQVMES
Experiment: cell-based or functional assay
A collection of binders and their measured IC50 ratio mouse/human
metric: IC50 ratio mouse/human

Antibody 21, scFv (scFv, V domains shown) VH: PVQLQQSGAEVKKPGSSVKVSCKASGGTFSSYAISWVRQAPGQGLEWMGGIIPTFGTANYAQKFQGRVTITADESTSTAYMELSGLRSEDTAVYYCAREKRQWLEGHFDYWGRGTPVTVSS VL: DIQMAQSPSFLSASIGDRVTITCRASEGIYHNLAWYQQKPGKAPKLLIYRASSLASGAPSRFSGSGSGTDFTLTISSLQPDDFATYYCQQYSNYPLTFGGGTKLEIK
7.9
Antibody 24, scFv (scFv, V domains shown) VH: QVQLQQSGAEVKKPGSSVKVSCKASGGTFSSYAISWVRQAPGQGLEWMGGIIPTFVTANYAQKFQGRVSITADESTSTAYMELSGLRSEDTAVYYCAREKRQWLEGHFDYWGRGTPVTVSS VL: DIQMTQSPSFLSASIGDRVTITCRASEGIYHALAWYQQKPGKAPKLLIYRASSLASGAPSRFSGSGSGTDFTLTISSLQPDDFATYYCQQYSNYPLTFGGGTKLEIK
43.3
Antibody 23, scFv (scFv, V domains shown) VH: QVQLQQSGAEVKKPGSSVKVSCKASGGTFSSYAISWVRQAPGQGLEWMGGIIPTFGTANYAQKFQSRVTITADESTSTAYMELSGLRSEDTAVYYCAREKRQWLEGHFDYWGRGTPVTVSS VL: DIQMTQSPSFLSASIGDRVTITCRASEGIYHSLAWYQQKPGKAPKLLIYRASSLASGAPSRFSGSGSGTDFTLTISSLQPDDFATYYCQQYSNYPLTFGGGTKLEIK
229
